TARGET_OR_TEST_SYSTEM: … (Plasmodium falciparum)
RUN_DESCRIPTION: BLI, target on sensor
pKd: −log10 of the molar value.
pKd overview
MEASUREMENT_KIND: pKd

BINDER	RECORDED_VALUE
AB-007060 (antibody, V domains shown) VH: QMQLVESGGGVVQPGRSLRLSCTASGFTFSTYAMHWVRQSPGQGLQWVAVISYHSTNKYYEDSVRGRFTISRDNSKNTLYLQMNSLRAEDTAVYYCARDGYSSSYFDFWGQGTLVTVSS VL: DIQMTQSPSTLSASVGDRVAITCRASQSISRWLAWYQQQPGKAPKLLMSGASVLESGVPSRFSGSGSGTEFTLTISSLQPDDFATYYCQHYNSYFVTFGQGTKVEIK	7.36
AB-007032 (antibody, V domains shown) VH: QVQLVESGGGVVQPGRSLRLSCAASGFTFSTYAMHWVRQAPGQGLQWVAVISYHSTNKYYEDSVRGRFTISRDNSKNTLYLQMNSLRAEDTAVYYCARDGYSSSFFDFWGQGTLVTVSS VL: DIQMTQSPSTLSASVGDRVTITCRASQSISRWLAWYQQQPGKAPKLLISGASVLESGVPSRFSGSGSGTEFTLTISSLQPDDFATYYCQHYNSYFVTFGQGTKVEIK	8.19
AB-007052 (antibody, V domains shown) VH: QMQLVESGGGVVQPGRSLRLSCTASGFTFSTYAMHWVRQSPGQGLQWVAVISYHSNNKYYEDSVRGRFTISRDNSKNTLYLQMNSLRAEDTAVYYCARDGYSSSFFDFWGQGTLVTVSS VL: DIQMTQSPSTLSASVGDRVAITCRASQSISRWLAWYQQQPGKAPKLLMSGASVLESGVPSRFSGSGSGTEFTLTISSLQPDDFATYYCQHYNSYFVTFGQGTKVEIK	8.42
AB-007042 (antibody, V domains shown) VH: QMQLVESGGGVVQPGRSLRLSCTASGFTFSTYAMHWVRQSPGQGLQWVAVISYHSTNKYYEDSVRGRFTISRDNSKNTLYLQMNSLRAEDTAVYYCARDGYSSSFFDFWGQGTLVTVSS VL: DIQMTQSPSTLSASVGDRVAITCRASQDISRWLAWYQQQPGKAPKLLMSGASVLESGVPSRFSGSGSGTEFTLTISSLQPDDFATYYCQHYNSYFVTFGQGTKVEIK	8.52
AB-007071 (antibody, V domains shown) VH: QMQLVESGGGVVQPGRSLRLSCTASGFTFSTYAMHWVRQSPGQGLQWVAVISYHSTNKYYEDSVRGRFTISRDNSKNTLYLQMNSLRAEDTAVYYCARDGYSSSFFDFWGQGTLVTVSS VL: DIQMTQSPSTLSASVGDRVAITCRASQSISRWLAWYQQQPGKAPKLLMSGASSLESGVPSRFSGSGSGTEFTLTISSLQPDDFATYYCQHYNSYFVTFGQGTKVEIK	7.98

This collection of values is drawn from patent US20220195023A1.
